assay: Plasma clearance in SCID mouse at 1 mg/kg, iv by LC/MS/MS analysis; type: ADME, organism-based; set-up: dose 1 mg/kg, route intravenous
VALUE_TYPE: clearance (mL/min/kg)
Please give a number only; it is taken to be in mL/min/kg.

Record CCN1C(=O)CCCc2c1ccc(Nc1ncc(Cl)c(N[C@H]3[C@@H](C(N)=O)[C@@H]4C=C[C@H]3C4)n1)c2OC . Reported clearance: 37

----------
experiment: AUC in SCID mouse at 1 mg/kg, iv; assay type: ADME, organism-based; parameters: dose 1 mg/kg, route intravenous; details: plasma
VALUE_TYPE: AUC

Record CCN1C(=O)CCCc2c1ccc(Nc1ncc(Cl)c(N[C@H]3[C@@H](C(N)=O)[C@@H]4C=C[C@H]3C4)n1)c2OC . Reported AUC: 446 ng·h/mL

----------
experiment: Half life in SCID mouse at 10 mg/kg, po; assay type: ADME, organism-based; set-up: dose 10 mg/kg, route oral; conditions: in vivo
VALUE_TYPE: half-life
Record the result as a number with its unit.

Record CCN1C(=O)CCCc2c1ccc(Nc1ncc(Cl)c(N[C@H]3[C@@H](C(N)=O)[C@@H]4C=C[C@H]3C4)n1)c2OC . Reported half-life: 2.4 h

----------
experiment: Volume of distribution in Sprague-Dawley rat at 1 mg/kg, iv; type: ADME, organism-based; set-up: dose 1 mg/kg, route intravenous; settings: in vivo
VALUE_TYPE: Vd (L/kg)
Please give a number only; it is taken to be in L/kg.

Record CCN1C(=O)CCCc2c1ccc(Nc1ncc(Cl)c(N[C@H]3[C@@H](C(N)=O)[C@@H]4C=C[C@H]3C4)n1)c2OC . Reported Vd: 0.9

----------
test: AUC in beagle dog at 10 mg/kg, po; type: ADME, organism-based, Canis lupus familiaris; parameters: dose 10 mg/kg, route oral; conditions: plasma
VALUE_TYPE: AUC (ng·h/mL)
Please give a number only; it is taken to be in ng·h/mL.

Record CCN1C(=O)CCCc2c1ccc(Nc1ncc(Cl)c(N[C@H]3[C@@H](C(N)=O)[C@@H]4C=C[C@H]3C4)n1)c2OC . Reported AUC: 2480

----------
experiment: AUC in Sprague-Dawley rat at 5 mg/kg, po; type: ADME, organism-based; set-up: dose 5 mg/kg, route oral; details: plasma
VALUE_TYPE: AUC (ng·h/mL)
Please give a number only; it is taken to be in ng·h/mL.

Record CCN1C(=O)CCCc2c1ccc(Nc1ncc(Cl)c(N[C@H]3[C@@H](C(N)=O)[C@@H]4C=C[C@H]3C4)n1)c2OC . Reported AUC: 4090

----------
target: ALK tyrosine kinase receptor (Homo sapiens, UniProt Q9UM73); assay: Inhibition of NPM-ALK autophosphorylation in human KARPAS299 cells; format: cell-based; conditions: karpas-299
Sequence (Q9UM73 19-1620 limits assumed): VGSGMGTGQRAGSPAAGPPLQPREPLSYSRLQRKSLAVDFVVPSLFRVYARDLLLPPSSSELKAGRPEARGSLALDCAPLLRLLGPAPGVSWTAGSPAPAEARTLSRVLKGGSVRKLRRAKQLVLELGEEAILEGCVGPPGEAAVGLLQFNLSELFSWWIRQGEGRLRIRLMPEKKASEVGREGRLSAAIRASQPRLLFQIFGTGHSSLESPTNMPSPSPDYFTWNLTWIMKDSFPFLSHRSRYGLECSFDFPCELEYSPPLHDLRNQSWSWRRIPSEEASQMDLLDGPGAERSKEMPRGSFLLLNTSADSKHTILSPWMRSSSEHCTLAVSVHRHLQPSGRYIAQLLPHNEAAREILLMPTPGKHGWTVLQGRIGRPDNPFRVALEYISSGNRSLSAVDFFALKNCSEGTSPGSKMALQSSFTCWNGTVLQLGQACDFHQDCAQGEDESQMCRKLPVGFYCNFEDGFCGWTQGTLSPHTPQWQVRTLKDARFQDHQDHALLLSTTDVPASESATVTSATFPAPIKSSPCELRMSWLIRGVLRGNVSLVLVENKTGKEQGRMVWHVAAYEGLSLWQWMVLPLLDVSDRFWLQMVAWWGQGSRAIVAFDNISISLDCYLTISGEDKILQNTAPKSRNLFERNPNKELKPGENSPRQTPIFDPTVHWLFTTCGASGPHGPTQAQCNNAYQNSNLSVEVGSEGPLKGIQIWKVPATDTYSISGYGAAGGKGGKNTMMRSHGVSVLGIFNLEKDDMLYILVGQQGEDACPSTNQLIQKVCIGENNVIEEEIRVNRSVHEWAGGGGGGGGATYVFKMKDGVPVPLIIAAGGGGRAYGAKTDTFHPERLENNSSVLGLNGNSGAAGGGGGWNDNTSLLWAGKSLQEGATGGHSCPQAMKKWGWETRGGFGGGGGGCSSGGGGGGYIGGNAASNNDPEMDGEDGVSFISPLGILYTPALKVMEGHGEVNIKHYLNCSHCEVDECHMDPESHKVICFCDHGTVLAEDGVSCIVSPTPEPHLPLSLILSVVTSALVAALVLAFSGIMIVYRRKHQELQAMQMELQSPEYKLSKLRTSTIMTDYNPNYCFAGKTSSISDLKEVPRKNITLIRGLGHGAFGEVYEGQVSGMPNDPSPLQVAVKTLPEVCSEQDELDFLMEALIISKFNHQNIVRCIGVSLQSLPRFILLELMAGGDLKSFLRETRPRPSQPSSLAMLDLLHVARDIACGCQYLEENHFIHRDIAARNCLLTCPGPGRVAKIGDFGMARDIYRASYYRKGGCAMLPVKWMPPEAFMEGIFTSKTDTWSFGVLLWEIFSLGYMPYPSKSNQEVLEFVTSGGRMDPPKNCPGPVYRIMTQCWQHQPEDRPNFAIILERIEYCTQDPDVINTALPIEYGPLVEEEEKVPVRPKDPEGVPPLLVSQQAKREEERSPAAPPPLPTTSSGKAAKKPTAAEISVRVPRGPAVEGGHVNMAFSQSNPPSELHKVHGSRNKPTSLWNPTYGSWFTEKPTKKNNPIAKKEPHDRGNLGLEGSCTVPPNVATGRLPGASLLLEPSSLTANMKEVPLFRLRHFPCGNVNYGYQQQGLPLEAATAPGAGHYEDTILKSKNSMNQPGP
VALUE_TYPE: pIC50
Scale: negative log10 of molar concentration, which is what pIC50 denotes.

With ALK tyrosine kinase receptor (Homo sapiens, UniProt Q9UM73) as the test system, CCN1C(=O)CCCc2c1ccc(Nc1ncc(Cl)c(N[C@H]3[C@@H](C(N)=O)[C@@H]4C=C[C@H]3C4)n1)c2OC showed pIC50 of 7.35

----------
assay: Tmax in beagle dog at 10 mg/kg, po; format: ADME, organism-based, Canis lupus familiaris; design: dose 10 mg/kg, route oral; conditions: in vivo
VALUE_TYPE: Tmax (h)
Please give a number only; it is taken to be in h.

Record CCN1C(=O)CCCc2c1ccc(Nc1ncc(Cl)c(N[C@H]3[C@@H](C(N)=O)[C@@H]4C=C[C@H]3C4)n1)c2OC . Reported Tmax: 1.1
